- test.system: human CD40 on cells (native CD40 on Ramos cells, human B cells, human monocyte-derived dendritic cells); cell … (human, UniProt P25942 21-193)
- Sequence (P25942 21-193): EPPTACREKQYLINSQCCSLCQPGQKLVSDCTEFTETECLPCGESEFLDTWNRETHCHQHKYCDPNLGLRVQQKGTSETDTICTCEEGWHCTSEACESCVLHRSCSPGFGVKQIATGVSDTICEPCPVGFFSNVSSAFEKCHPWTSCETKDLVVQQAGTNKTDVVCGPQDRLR
- experiment: cell-based or functional assay
Would you kindly list Pro-apoptosis activity (IC50) for each of these binders?

Some solved entries appear below for comparison.
[
  {
    "binder": "cR-33, chimeric R-33 (rabbit Fab and human IgG1) (antibody, V domains shown) VH: QSLEESGGDLVKPGASLTLTCTASGFSFSSSYWICWVRQAPGKGLEWIACINTGSSVTTVYARWAKGRFTISKASSTTVTLQMTSLTAADTATYFCARYIIPGYNFNLWGPGTLVTVSS VL: AYDMTQTPASVEVAVGGTVTINCQASQSISSYLYWYQQKPGQPPKLLIYDASKLASGVPSRFKGSGSGTQFTLTITGVECADAATYYCQQGYSHINVDNIFGGGTEVVVK",
    "measured.attribute": "Pro-apoptosis activity (IC50)",
    "reported.measurement": "0.9 µg/mL"
  },
  {
    "binder": "cR-8, chimeric R-8 (rabbit Fab and human IgG1) (antibody, V domains shown) VH: QSLEESGGDLVKPGASLTLTCTASGFSFSSTYVCWVRQAPGKGLEWIACIYTGDGTNYSASWAKGRFTISKPSSTTVTLQMTSLTPADTATYFCARPDITYGFAINFWGPGTLVTVSS VL: DIVMTQTPSSASEPVGGTVTIKCQASQSISSRLAWYQQKPGQPPKLLIYRASTLASGVPSRFKGSGSGTEFTLTISDLECADAATYYCQCTGYGISWPIGGGTEVVVK",
    "measured.attribute": "Pro-apoptosis activity (IC50)",
    "reported.measurement": "0.45 µg/mL"
  },
  {
    "binder": "c19-21, chimeric 19-21 (rabbit Fab and human IgG1) (antibody, V domains shown) VH: QSLEESGGRLVTPGTPLTLTCTVSGFDLSSNAMNWVRQAPGKGLEWIGYITISGSAGYASWAKGRFTISKTSTTVDLKISSPTTEDTATYFCARGYNTMAIWGPGTLVTVSS VL: AQVLTQTPSPVSAPVGGTVTINCQSSQNVLINNRLAWYQQKPGQPPKLLIYDASKLASGVPSRFKGSGSGTQFTLTISGVQCDDAATYYCQAGYSSGDGNAFGGGTEVVVK",
    "measured.attribute": "Pro-apoptosis activity (IC50)",
    "reported.measurement": "0.02 µg/mL"
  }
]

Next, consider the following binder.
Query block: Could you share which Pro-apoptosis activity (IC50) value was measured for cR-3, chimeric R-3 (rabbit Fab and human IgG1) (antibody, V domains shown) VH: QSLEESGGDLVKPGASLTLTCTASGFSFSDSFWIAWVRQAPGKGLEWIGCIHALSSGSTYYANWARGRFTISKTSSTTVTLQMNSLTAADTATYFCARSYAGYADYNVATGLNLWGPGTLVTVSS VL: DVVMTQTPSSASAAVGGTVTTKCQASQSIGSYLAWYQQKPGQRPKLLIYAASNLASGVPSRFKGSRSGTEYTLTISGVQREDAATYYCLGSFTGSDTTFGGGTELEIL ?
Result block: 0.57 µg/mL
